System: tubulin
ASSAY_COMMENT: Tubulin binding assay (Tubulin Assay), method of Parness et al.
TEST_PARAMETERS: compared to taxol and taxotere
The reader will find reported Tubulin Assay Rel. Rate values listed item by item below.
OUTCOME_MEASURE: Tubulin Assay Rel. Rate

• CC(=O)O[C@H]1C(=O)[C@@]2(C)[C@H]([C@H](OC(=O)c3ccccc3)[C@]3(O)C[C@H](OC(=O)[C@H](O)[C@@H](NC(=O)c4ccccc4)c4ccc5c(c4)OCO5)C(C)=C1C3(C)C)[C@]1(OC(C)=O)CO[C@@H]1C[C@@H]2O = 85
• CC(=O)O[C@H]1C(=O)[C@@]2(C)[C@H]([C@H](OC(=O)c3ccccc3)[C@]3(O)C[C@H](OC(=O)[C@H](O)[C@@H](NC(=O)c4ccc(C)cc4)c4ccc(Cl)cc4)C(C)=C1C3(C)C)[C@]1(OC(C)=O)CO[C@@H]1C[C@@H]2O = 98
• CC(=O)O[C@H]1C(=O)[C@@]2(C)[C@H]([C@H](OC(=O)c3ccccc3)[C@]3(O)C[C@H](OC(=O)[C@H](O)[C@@H](NC(=O)c4ccc(F)cc4)c4ccc(F)cc4)C(C)=C1C3(C)C)[C@]1(OC(C)=O)CO[C@@H]1C[C@@H]2O = 98
• CC(=O)O[C@H]1C(=O)[C@@]2(C)[C@H]([C@H](OC(=O)c3ccccc3)[C@]3(O)C[C@H](OC(=O)[C@H](O)[C@@H](NC(=O)c4ccccc4)c4ccc(Cl)cc4)C(C)=C1C3(C)C)[C@]1(OC(C)=O)CO[C@@H]1C[C@@H]2O = 97
• CC(=O)O[C@H]1C(=O)[C@@]2(C)[C@H]([C@H](OC(=O)c3ccccc3)[C@]3(O)C[C@H](OC(=O)[C@H](O)[C@@H](NC(=O)c4ccc(Br)cc4)c4ccc(F)cc4)C(C)=C1C3(C)C)[C@]1(OC(C)=O)CO[C@@H]1C[C@@H]2O = 100
• COc1ccc([C@H](NC(=O)c2ccc(Br)cc2)[C@@H](O)C(=O)O[C@H]2C[C@@]3(O)[C@@H](OC(=O)c4ccccc4)[C@@H]4[C@]5(OC(C)=O)CO[C@@H]5C[C@H](O)[C@@]4(C)C(=O)[C@H](OC(C)=O)C(=C2C)C3(C)C)cc1 = 70
• COc1ccc([C@H](NC(=O)c2ccccc2)[C@@H](O)C(=O)O[C@H]2C[C@@]3(O)[C@@H](OC(=O)c4ccccc4)[C@@H]4[C@]5(OC(C)=O)CO[C@@H]5C[C@H](O)[C@@]4(C)C(=O)[C@H](OC(C)=O)C(=C2C)C3(C)C)cc1 = 87
• COc1ccc(C(=O)N[C@@H](c2ccccc2)[C@@H](O)C(=O)O[C@H]2C[C@@]3(O)[C@@H](OC(=O)c4ccccc4)[C@@H]4[C@]5(OC(C)=O)CO[C@@H]5C[C@H](O)[C@@]4(C)C(=O)[C@H](OC(C)=O)C(=C2C)C3(C)C)cc1 = 99
• CC(=O)O[C@H]1C(=O)[C@@]2(C)[C@H]([C@H](OC(=O)c3ccccc3)[C@]3(O)C[C@H](OC(=O)[C@H](O)[C@@H](NC(=O)c4ccc(C(C)(C)C)cc4)c4ccc(Cl)cc4)C(C)=C1C3(C)C)[C@]1(OC(C)=O)CO[C@@H]1C[C@@H]2O = 23
• CC(=O)O[C@H]1C(=O)[C@@]2(C)[C@H]([C@H](OC(=O)c3ccccc3)[C@]3(O)C[C@H](OC(=O)[C@H](O)[C@@H](NC(=O)c4ccccc4)c4ccccc4)C(C)=C1C3(C)C)[C@]1(OC(C)=O)CO[C@@H]1C[C@@H]2O [Taxol, taxol, reference compound] = 98
• COc1ccc(C(=O)N[C@@H](c2ccc(OC)cc2)[C@@H](O)C(=O)O[C@H]2C[C@@]3(O)[C@@H](OC(=O)c4ccccc4)[C@@H]4[C@]5(OC(C)=O)CO[C@@H]5C[C@H](O)[C@@]4(C)C(=O)[C@H](OC(C)=O)C(=C2C)C3(C)C)cc1 = 81
• CC(=O)O[C@H]1C(=O)[C@@]2(C)[C@H]([C@H](OC(=O)c3ccccc3)[C@]3(O)C[C@H](OC(=O)[C@H](O)[C@@H](NC(=O)c4ccc(C(C)(C)C)cc4)c4ccccc4)C(C)=C1C3(C)C)[C@]1(OC(C)=O)CO[C@@H]1C[C@@H]2O = 85
• CC(=O)O[C@H]1C(=O)[C@@]2(C)[C@H]([C@H](OC(=O)c3ccccc3)[C@]3(O)C[C@H](OC(=O)[C@H](O)[C@@H](NC(=O)c4ccc(Cl)cc4)c4ccc(Cl)cc4)C(C)=C1C3(C)C)[C@]1(OC(C)=O)CO[C@@H]1C[C@@H]2O = 60
• CC(=O)O[C@H]1C(=O)[C@@]2(C)[C@H]([C@H](OC(=O)c3ccccc3)[C@]3(O)C[C@H](OC(=O)[C@H](O)[C@@H](NC(=O)c4ccccc4)c4ccc(Br)cc4)C(C)=C1C3(C)C)[C@]1(OC(C)=O)CO[C@@H]1C[C@@H]2O = 74

Where do these numbers come from? They come from patent US5250683A.
